Origin of measurements: patent US4740233A

System: nitrification of ammonium nitrogen
assay-notes: Suppression of nitrification of ammonium nitrogen in soil
condition-description: 10 ppm, 27° C.
Protocol: A sufficient volume of water was added to 20 g of the soil in a wide-mouth, screw-cap, 4-ounce, glass bottle, such that the moisture content of the mixture was made equal to the 1/3 bar tension value for that soil. The mixture was thoroughly mixed before sealing. […] The soil samples were analyzed as follows: Sufficient ammonium sulfate extracting solution was added to the sample, such that the total volume of added water was 50 ml (included water added during sample preparation). […]
Each entry below carries its reported % NH4-N Remaining After 2 Weeks Incubation.
Field format: number, assumed %, no unit text.

Below, 3 compounds whose answers are already recorded.
compound	target-or-system	data-value
Cc1ccn2nc(S(=O)(=O)Nc3c(C)cccc3Br)nc2n1 [Compound 148]	nitrification of ammonium nitrogen	93
Cc1cc(C)n2nc(S(=O)(=O)Nc3c(Cl)cccc3Br)nc2n1 [Compound 39]	nitrification of ammonium nitrogen	100
COC(=O)c1cccc(C)c1NS(=O)(=O)c1nc2nc(C)cc(C)n2n1 [Compound 50]	nitrification of ammonium nitrogen	92

Exercise: State, in one line, measured % NH4-N Remaining After 2 Weeks Incubation of Cc1cc(C)n2nc(S(=O)(=O)Nc3ccncc3)nc2n1 [Compound 253]
Key: 17

Exercise: Assign % NH4-N Remaining After 2 Weeks Incubation to the following record: Cc1cc(C)n2nc(S(=O)(=O)Nc3ccccc3I)nc2n1 [Compound 6]
Key: 87

###

Listed below: plant injury at 280.212 g/ha values for each entry.
Test system: corn
assay-notes: Preemergent control of plant species
Type: in vivo, Zea mays
condition-description: Zea mays, pre-emergence, 336 h; 0.25 lb/acre; read-out: percent preemergent control
Express it in %; write the number only.

See these solved cases before continuing.
substance-smiles	units-symbol	plant injury at 280.212 g/ha
COC(=O)c1cccc(C)c1NS(=O)(=O)c1nc2nc(C)cc(C)n2n1	%	99
Cc1ccc(F)c(NS(=O)(=O)c2nc3nccc(C)n3n2)c1F	%	10
Cc1cn2nc(S(=O)(=O)Nc3c(Cl)cccc3Cl)nc2nc1N(C)C	%	20
O=S(=O)(Nc1c(F)cccc1F)c1nc2ncccn2n1	%	30
Cc1ccn2nc(S(=O)(=O)N(C(=O)CC(C)C)c3c(F)cccc3F)nc2n1	%	85

As a next step, examine the compound that follows.
Exercise: Please report the measured plant injury at 280.212 g/ha for COc1cccc(C(F)(F)F)c1NS(=O)(=O)c1nc2ncccn2n1
Key: 100

###

Reported plant injury at 280.212 g/ha values are given for each entry in this list.
Tested on: rape
assay-notes: Preemergent control of plant species
Format: in vivo, Brassica napus
condition-description: Brassica napus, pre-emergence, 336 h; 0.25 lb/acre; read-out: percent preemergent control
Value expressed in %; do not type the unit.

Exercise: Give plant injury at 280.212 g/ha for Cc1ccc(Cl)c(NS(=O)(=O)c2nc3nc(C)c(Cl)c(C)n3n2)c1Cl
Key: 100

Exercise: Let me know recorded plant injury at 280.212 g/ha for Cc1cnc2nc(S(=O)(=O)Nc3c(Cl)ccc(C)c3Cl)nn2c1 , thanks.
Key: 100

Exercise: Please look at this molecule and report its plant injury at 280.212 g/ha: Cc1cc(C)n2nc(S(=O)(=O)Nc3c(F)cccc3C(=O)OC(C)C)nc2n1
Key: 95

Exercise: For the molecule Cc1nc2nc(S(=O)(=O)Nc3c(Cl)cccc3Cl)nn2c(C)c1C , give its measured plant injury at 280.212 g/ha value.
Key: 95

Exercise: Look up and report measured plant injury at 280.212 g/ha for this entry: Cc1ccn2nc(S(=O)(=O)N(C(=O)CC(C)C)c3c(F)cccc3F)nc2n1
Key: 100

Exercise: Answer with the recorded plant injury at 280.212 g/ha of Cc1cc(C)n2nc(S(=O)(=O)Nc3c(Cl)cc(F)cc3Cl)nc2n1 only.
Key: 93

###

Test system: corn
assay-notes: Postemergent control of plant species
Assay type: in vivo, Zea mays
condition-description: Zea mays, post-emergence, 336 h, read-out: percent postemergent control
Below is a list of entries, each paired with its recorded plant injury at 500 ppm value.
Value expressed in %; do not type the unit.

substance-smiles	target-or-system	units-symbol	plant injury at 500 ppm
Cc1nc2nc(S(=O)(=O)Nc3ccccc3C(F)(F)F)nn2c2c1CCC2	corn	%	90
COC(=O)c1c(NS(=O)(=O)c2nc3nc(C)ccn3n2)c(C)nn1C	corn	%	0
Cc1ccn2nc(S(=O)(=O)N(C(=O)N(C)C)c3c(Cl)cccc3Cl)nc2n1	corn	%	0
Cc1cc(C)n2nc(S(=O)(=O)Nc3c(Cl)cccc3CO)nc2n1	corn	%	0

// moving on: another record for plant injury at 500 ppm
Exercise: Give the reported value of plant injury at 500 ppm for this record: COc1cccc(C=NO)c1NS(=O)(=O)c1nc2nc(C)cc(C)n2n1
Key: 0

###

Catalogue of pest or weed control at 280.212 g/ha values
System: barnyardgrass
assay-notes: Preemergent control of plant species
Format: in vivo, Echinochloa crusgalli
condition-description: Echinochloa crus-galli, pre-emergence, 336 h; 0.25 lb/acre; read-out: percent preemergent control
Answer format: numeric, % implied, no suffix.

substance-smiles	target-or-system	pest or weed control at 280.212 g/ha [%]
Cc1nc2nc(S(=O)(=O)Nc3ccccc3C(F)(F)F)nn2c(C)c1C	barnyardgrass	0

Exercise: Determine its reported pest or weed control at 280.212 g/ha: CC(C)=NOC(=O)c1cccc(C)c1NS(=O)(=O)c1nc2nc(C)cc(C)n2n1
Key: 20

Exercise: Give me measured pest or weed control at 280.212 g/ha, please, for this compound: Cc1ccn2nc(S(=O)(=O)N(C(=O)C3CCCCC3)c3c(F)cccc3F)nc2n1
Key: 100

Exercise: Report pest or weed control at 280.212 g/ha, nothing else, for this compound: COc1cccc(C(F)(F)F)c1NS(=O)(=O)c1nc2ncccn2n1
Key: 95

###

Test system: yellow nutsedge
assay-notes: Preemergent control of plant species
Type: in vivo, Cyperus esculentus
condition-description: Cyperus, pre-emergence, 336 h; 0.25 lb/acre; read-out: percent preemergent control
Readings of pest or weed control at 280.212 g/ha for the listed compounds
Enter your answer as a number in %; do not include the unit.

compound	target-or-system	units-symbol	pest or weed control at 280.212 g/ha
Cc1ccn2nc(S(=O)(=O)N(C(=O)C3CC3)c3c(F)cccc3F)nc2n1 [Compound 289]	yellow nutsedge	%	100
CC(=O)N(c1c(Cl)cccc1Cl)S(=O)(=O)c1nc2nc(C)cc(C)n2n1 [Compound 262]	yellow nutsedge	%	100

Exercise: Answer with the recorded pest or weed control at 280.212 g/ha for the compound listed here: Cc1cc(C)n2nc(S(=O)(=O)Nc3ccccc3Br)nc2n1 [Compound 41]
Key: 70

Exercise: Complete the entry with pest or weed control at 280.212 g/ha for Cc1nc2nc(S(=O)(=O)Nc3ccccc3C(F)(F)F)nn2c(C)c1C [Compound 112]
Key: 90

Exercise: Provide one value: measured pest or weed control at 280.212 g/ha of COc1nc2nc(S(=O)(=O)Nc3c(Cl)ccc(C)c3Cl)nn2cc1C [Compound 218]
Key: 50

Exercise: Retrieve pest or weed control at 280.212 g/ha measured for Cc1ccn2nc(S(=O)(=O)N(C(=O)c3ccccc3)c3c(F)cccc3F)nc2n1 [Compound 290] and print it.
Key: 80

Exercise: Tell me its pest or weed control at 280.212 g/ha given Cc1cc(C)n2nc(S(=O)(=O)Nc3c(F)cccc3F)nc2n1 [Compound 25] as the entry.
Key: 95

Exercise: Give pest or weed control at 280.212 g/ha for C=CCOC(=O)c1cccc(C)c1NS(=O)(=O)c1nc2nc(C)cc(C)n2n1 [Compound 76]
Key: 100

Exercise: Return pest or weed control at 280.212 g/ha (reported value) for this compound: COc1nc2nc(S(=O)(=O)Nc3c(F)ccc(C)c3F)nn2cc1C [Compound 219]
Key: 100

###

Test system: yellow nutsedge
assay-notes: Control of aquatic plant species (paddy water)
Assay type: in vivo, Cyperus esculentus
condition-description: Cyperus, 216 h; 0.25 Kg/Ha, nine days; read-out: Percent control
Would you please tag the item criterion met when its pest or weed control at 250 g/ha is 90% or above, and criterion not met when it is below?

See these solved cases before continuing.
substance-smiles	category
Cc1cc(C)n2nc(S(=O)(=O)Nc3ccccc3C(F)(F)F)nc2n1	criterion met
Cc1cc(C)n2nc(S(=O)(=O)Nc3c(Br)cccc3Br)nc2n1	criterion met
O=S(=O)(Nc1c(Cl)cccc1Cl)c1nc2ncc(Cl)cn2n1	criterion not met
Cc1cc(C)n2nc(S(=O)(=O)Nc3c(Cl)cccc3Cl)nc2n1	criterion met
Cc1cc(C)n2nc(S(=O)(=O)Nc3c(Cl)cccc3Br)nc2n1	criterion met

Read the next record carefully.
Exercise: Answer whether pest or weed control at 250 g/ha of CSc1ccccc1NS(=O)(=O)c1nc2nc(C)cc(C)n2n1 is greater than or equal to 90%.
Key: criterion not met
